Quick reference: viability, T/C of the listed items.
System: LG0703-F498-PDC complex spheroid growth
assay.details: Anticancer human tumor LG0703-F498-PDC patient-derived lung adenocarcinoma cell line growth inhibition [AhR]
assay.setup: second compound 3.16 µM; first compound 0.00316 µM; stronger effect = lower value
Text: Multicellular complex tumor spheroid response to aryl hydrocarbon receptor antagonists in combination with a variety of drugs and investigational agents in selected tumor cell lines […] Compounds. […] If the clinical Cmax for an agent had not been determined, the highest concentration tested was 10 microM (Table 1). […]

compound | viability, T/C
CC[C@@]1(O)C(=O)OCc2c1cc1n(c2=O)Cc2cc3c(CN(C)C)c(O)ccc3nc2-1 + CC(CO)NC(=O)c1cc(-c2ccc(Cl)cc2)nn(-c2cnn(C)c2)c1=O | 90.8%
CC1COCCN1c1cc(-c2ccnn2C)c2ccnc(-c3ccn[nH]3)c2n1 (stereo unspecified) + Cc1ccccc1N=Nc1ccc(NC(=O)c2ccnn2C)c(C)c1 | 92.8%
CC[C@@]1(O)C(=O)OCc2c1cc1n(c2=O)Cc2cc3c(CN(C)C)c(O)ccc3nc2-1 + Cc1cncc(-c2nc(NCCc3c[nH]c4ccccc34)c3ncn(C(C)C)c3n2)c1 | 56.6%
CC1COCCN1c1cc(-c2ccnn2C)c2ccnc(-c3ccn[nH]3)c2n1 (stereo unspecified) + Cc1cncc(-c2nc(NCCc3c[nH]c4ccccc34)c3ncn(C(C)C)c3n2)c1 | 38%
Nc1ncn(C2CC(O)C(CO)O2)c(=O)n1 (stereo unspecified) + Cc1ccccc1N=Nc1ccc(NC(=O)c2ccnn2C)c(C)c1 | 95.2%
Cn1ncnc1C1c2n[nH]c(=O)c3cc(F)cc(c23)NC1c1ccc(F)cc1 (stereo unspecified) + CC(CO)NC(=O)c1cc(-c2ccc(Cl)cc2)nn(-c2cnn(C)c2)c1=O | 80.4%

----------
Tested on: LG0703-F498-PDC complex spheroid growth
assay.details: Anticancer human tumor LG0703-F498-PDC cell line growth inhibition [AhR];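 note: luminescence taken as a proxy for viable cell amount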
assay.setup: curve of first compound; second compound 3.16 µM
Quick reference: IC50 of the listed items.

compound | IC50
Nc1ccn(C2OC(CO)C(O)C2(F)F)c(=O)n1 (stereo unspecified) + Cc1cncc(-c2nc(NCCc3c[nH]c4ccccc34)c3ncn(C(C)C)c3n2)c1 | < 31.6 nM
CC1COCCN1c1cc(-c2ccnn2C)c2ccnc(-c3ccn[nH]3)c2n1 (stereo unspecified) + Cc1cncc(-c2nc(NCCc3c[nH]c4ccccc34)c3ncn(C(C)C)c3n2)c1 | < 3.16 nM
Nc1ccccc1NC(=O)c1ccc(CNC(=O)OCc2cccnc2)cc1 + CC(CO)NC(=O)c1cc(-c2ccc(Cl)cc2)nn(-c2cnn(C)c2)c1=O | 413 nM
COc1cc(C2c3cc4c(cc3C(OC3OC5COC(C)OC5C(O)C3O)C3COC(=O)C23)OCO4)cc(OC)c1O (stereo unspecified) + Cc1ccccc1N=Nc1ccc(NC(=O)c2ccnn2C)c(C)c1 | > 10000 nM
COc1cccc2c1C(=O)c1c(O)c3c(c(O)c1C2=O)CC(O)(C(=O)CO)CC3OC1CC(N)C(O)C(C)O1 (stereo unspecified) + CC(CO)NC(=O)c1cc(-c2ccc(Cl)cc2)nn(-c2cnn(C)c2)c1=O | 459 nM
CCN(c1cc(-c2ccc(CN3CCOCC3)cc2)cc(C(=O)NCc2c(C)cc(C)[nH]c2=O)c1C)C1CCOCC1 + Cc1cncc(-c2nc(NCCc3c[nH]c4ccccc34)c3ncn(C(C)C)c3n2)c1 | < 9.49 nM
